Parameter: Fat uptake. Scope: all listed entries.
- Tested on: mice bearing PSMA-expressing LNCAP cancer xenografts
- assayRemarks: Biodistribution of 68Ga-labeled compounds
- Type: in vivo
- testContext: 3 h post-injection
- Experimental: Imaging and biodistribution experiments were performed using NODSCID 1L2RyKO male mice. Mice were anesthetized by inhalation with 2% isoflurane in oxygen, and implanted subcutaneously with 1×10^7 LNCaP cells behind left shoulder. […] For biodistribution studies, the mice were injected with the radiotracer as described above. […] The collected organs/tissues were weighed and counted using an automatic gamma counter. […]
Hi! Could you send only the number? It should be in % ID/g, unit omitted.

[[record]]
compound = "O=C([O-])CN1CCN(CC(=O)[O-])CCN(CC(=O)NCCCC[C@H](NC(=O)CNC(=O)CCCc2ccc(Br)cc2)C(=O)NC[C@H]2CC[C@H](C(=O)N[C@@H](Cc3ccc4ccccc4c3)C(=O)NCCCC[C@H](NC(=O)N[C@@H](CCC(=O)O)C(=O)O)C(=O)O)CC2)CCN(CC(=O)[O-])CC1.[68Ga+3] [^68Ga-HTK03058]"
displayunit = "% ID/g"
number = 2.47

[[record]]
compound = "O=C([O-])CN1CCN(CC(=O)[O-])CCN(CC(=O)NCCCC[C@H](NC(=O)CNC(=O)CCCc2ccc(I)cc2)C(=O)NC[C@H]2CC[C@H](C(=O)N[C@@H](Cc3ccc4ccccc4c3)C(=O)NCCCC[C@H](NC(=O)N[C@@H](CCC(=O)O)C(=O)O)C(=O)O)CC2)CCN(CC(=O)[O-])CC1.[68Ga+3] [^68Ga-HTK03024]"
displayunit = "% ID/g"
number = 3.53

[[record]]
compound = "O=C([O-])CN1CCN(CC(=O)[O-])CCN(CC(=O)NCCCC[C@H](NC(=O)CNC(=O)CCCc2ccc([N+](=O)[O-])cc2)C(=O)NC[C@H]2CC[C@H](C(=O)N[C@@H](Cc3ccc4ccccc4c3)C(=O)NCCCC[C@H](NC(=O)N[C@@H](CCC(=O)O)C(=O)O)C(=O)O)CC2)CCN(CC(=O)[O-])CC1.[68Ga+3] [^68Ga-HTK03089]"
displayunit = "% ID/g"
number = 1.28


Which measured Fat uptake value corresponds to O=C([O-])CN1CCN(CC(=O)[O-])CCN(CC(=O)NCCCC[C@H](NC(=O)CNC(=O)CCCc2ccc(Cl)cc2)C(=O)NC[C@H]2CC[C@H](C(=O)N[C@@H](Cc3ccc4ccccc4c3)C(=O)NCCCC[C@H](NC(=O)N[C@@H](CCC(=O)O)C(=O)O)C(=O)O)CC2)CCN(CC(=O)[O-])CC1.[68Ga+3] [^68Ga-HTK03055] ?
2.12

Which measured Fat uptake value corresponds to O=C([O-])CN1CCN(CC(=O)[O-])CCN(CC(=O)NCC2CCC(C(=O)NC(Cc3c4ccccc4cc4ccccc34)C(=O)NCCCCC(NC(=O)NC(CCC(=O)O)C(=O)O)C(=O)O)CC2)CCN(CC(=O)[O-])CC1.[68Ga+3] (centres unmarked) [^68Ga-HTK03041] ?
1.06
